Documented pest or weed control at 100 ppm across a set of compounds
system: cattle ticks (Rhipicephalus microplus) strain Parkhurst, SP-resistant; test: Rhipicephalus (Boophilus) microplus dip test; type: in vivo; conditions: 168 h, application rate 100 ppm, egg deposition after 7 days, read-out: activity (efficacy: infertile eggs)
Express it in %; write the number only.

# COMPOUND, pest or weed control at 100 ppm, %
rows = [
    ("Cc1nc([C@H](C)NC(=O)c2cc(C(F)(F)F)cc(C(F)(F)F)c2)n(-c2ncc(C(=O)N3C[C@@H](C)O[C@@H](C)C3)s2)n1", 100),
    ("CC1CN(C(=O)c2ccc(-n3ncnc3[C@H](C)NC(=O)c3cc(C(F)(F)F)cc(C(F)(F)F)c3)nc2)CC(C)O1 (stereo partly drawn)", 100),
]

As a next step, examine the compound that follows.
Look up pest or weed control at 100 ppm: COC1CN(C(=O)c2ccc(-n3ncnc3[C@H](C)NC(=O)c3cc(C(F)(F)F)cc(C(F)(F)F)c3)nc2)C1
100
